Values from patent US5565429A

Tested Target: human sputum leucocyte elastase (Homo sapiens, UniProt P08246)
Sequence (P08246 30-247 limits assumed): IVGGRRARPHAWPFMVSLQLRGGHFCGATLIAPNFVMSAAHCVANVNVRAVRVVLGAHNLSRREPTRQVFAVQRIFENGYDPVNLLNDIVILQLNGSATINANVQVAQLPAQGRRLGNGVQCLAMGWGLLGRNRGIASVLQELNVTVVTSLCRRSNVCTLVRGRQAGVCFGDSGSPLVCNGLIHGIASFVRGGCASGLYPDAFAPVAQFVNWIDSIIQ
Assay: In vivo inhibitory activity: model of acute hemorrhagic edema in hamsters
Parameters: It is a glycoprotein of 25 to 30 kDa formed from 218 amino acids; from tissue; host or cells: human sputum (purified preparation)
Condition Set: hamster, 10 μg intratracheally 3 hours before elastase (50 units); hemoglobin in broncho-alveolar washing 3 hours after elastase
Measured Parameter: Inhibition (%) of hemorrhaging

Recorded results for 2 molecules are shown here.
Problem: Give Inhibition (%) of hemorrhaging for this entry on human sputum leucocyte elastase (Homo sapiens, UniProt P08246): CC(C)C(NC(=O)c1ccc(S(=O)(=O)NC(=O)Nc2ccc(Cl)cc2)cc1)C(=O)N1C2CCC(CC2)C1C(=O)NC(C(=O)C(F)(F)F)C(C)C (centres unmarked)
Result: 63

Problem: Give Inhibition (%) of hemorrhaging for this entry on human sputum leucocyte elastase (Homo sapiens, UniProt P08246): CC(C)C(NC(=O)c1ccc(S(=O)(=O)NC(=O)C23CC4CC(CC(C4)C2)C3)cc1)C(=O)N1C2CCC(CC2)C1C(=O)NC(C(=O)C(F)(F)F)C(C)C (centres unmarked)
Result: 57

(a) CC(C)C(NC(=O)[C@@H]1C[C@@H]2CCCC[C@@H]2N1C(=O)[C@@H](NC(=O)c1ccc(S(=O)(=O)NC(=O)Cc2cc(C(C)(C)C)c(O)c(C(C)(C)C)c2)cc1)C(C)C)C(=O)C(F)(F)F (some centres unmarked)
(b) CC(C)C(NC(=O)[C@@H]1C[C@@H]2CCCC[C@@H]2N1C(=O)[C@@H](NC(=O)c1ccc(S(=O)(=O)NC(=O)C(C2CC2)C2CC2)cc1)C(C)C)C(=O)C(F)(F)F (some centres unmarked)
Problem: Of a versus b , which is the one with smaller reported Inhibition (%) of hemorrhaging? Refer to your chosen entry by its label in the reply.
Result: b
